- test-name: yeast display, Sf9 membrane polyspecificity reagent, FACS + sequencing; frameworks hold sequencing errors

[
  {
    "sequence-input": "QVQLVESGGGLVQAGGSLRLICAASGFTFYIYAMGWYRQAPGKERELVAAINFRGGSTYYADSVKGRFTLSRDNAKNTVYLQMNSLKPEDTAVYYCAAVPRTYSGYYYWGQGTKVTVSS",
    "polyreactivity (PSR sort gate)": "high polyreactivity"
  },
  {
    "sequence-input": "QVQLVESGGGLVQAGGSLRLSCAASGFIFRYYAMGRYRPAPGKERELVAAISKRGGGTYYADSVKGRFTISRDNAKNTVYLQMNSLKPEDTAVYYCKKDGGYGTGSSREYDSWGQGTQVTVSS",
    "polyreactivity (PSR sort gate)": "high polyreactivity"
  }
]
